Reported Mortality values are given for each entry in this list.
- Test system: Brugia malayi
- method-summary: Compound causing 100% mortality of Brugia malayi female adult worms at 25 ppm concentration
- Assay type: functional
measured-metric: Mortality

line_notation=O=C1c2ccccc2C(=O)c2c1cc(O)c(O)c2O measured_metric=Mortality observed_result="4 days"
line_notation=COc1c(C)cc2c(c1O)C(=O)c1c(O)cccc1C2=O measured_metric=Mortality observed_result="2 days"
line_notation=Cc1cc2c(c(O)c1O)C(=O)c1c(O)cccc1C2=O measured_metric=Mortality observed_result="3 days"
line_notation=Cc1cc2c(c(O)c1O)C(=O)c1ccccc1C2=O measured_metric=Mortality observed_result="3 days"
